observable: pKi
pKi here: minus log base 10 of the concentration, concentration in moles per litre.

Query: Under TyrRS (Escherichia coli, UniProt P0AGJ9), report pKi for Nc1cc(CO)cc2ncn([C@@H]3O[C@H](COS(=O)(=O)NC(=O)[C@@H](N)Cc4ccc(O)cc4)[C@@H](O)C3O)c12 (stereo in doubt) [32b]
Result: 5.91
